B1: library; a variant is named by its letters at N, in order (parent)
chain: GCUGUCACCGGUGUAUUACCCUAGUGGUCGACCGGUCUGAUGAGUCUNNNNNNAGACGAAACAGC

- Variants of: B1
- Protocol: normalized RNA/DNA level without ligand (relative to sTRSVctl = 100) (log10 (% of sTRSVctl)); ligand: hypoxanthine (xanthine aptamer); higher = less ribozyme self-cleavage, higher mRNA level
- Settings: HEK293T, reporter: mCherry (pCS4076), ligand present: no
Endpoint label: normalized RNA/DNA level without ligand (log10)

Would you please look over these solved cases?
Variant notation: AACUCA
Recorded result: 1.88
//
Variant notation: GUUGGA
Recorded result: 1.67
//
Variant notation: CUGAUC
Recorded result: 1.95
//
Variant notation: UUGCUA
Recorded result: 1.9
//
Variant notation: AUGCUU
Recorded result: 1.86

Please give normalized RNA/DNA level without ligand (log10) for each item listed below.
1. AAGUUG
2. GCAGUA
3. GGCUGC
4. GAAUUG
5. AUAAGG

1. 1.12
2. 1.77
3. 1.58
4. 1.4
5. 1.4

Lab note: each variant below needs its normalized RNA/DNA level without ligand (log10) filled in.
1. CUGUAA
2. AAGGGC
3. CCCAUG
4. CAUACU
5. UCUUCG

1.71
1.75
1.81
1.83
1.7

Taken from the supplement of paper PMC6757056.
